Measured Ki, listed per entry.
# measurement.target: D2 receptor (Chlorocebus aethiops)
# Sequence (P52702 whole entry): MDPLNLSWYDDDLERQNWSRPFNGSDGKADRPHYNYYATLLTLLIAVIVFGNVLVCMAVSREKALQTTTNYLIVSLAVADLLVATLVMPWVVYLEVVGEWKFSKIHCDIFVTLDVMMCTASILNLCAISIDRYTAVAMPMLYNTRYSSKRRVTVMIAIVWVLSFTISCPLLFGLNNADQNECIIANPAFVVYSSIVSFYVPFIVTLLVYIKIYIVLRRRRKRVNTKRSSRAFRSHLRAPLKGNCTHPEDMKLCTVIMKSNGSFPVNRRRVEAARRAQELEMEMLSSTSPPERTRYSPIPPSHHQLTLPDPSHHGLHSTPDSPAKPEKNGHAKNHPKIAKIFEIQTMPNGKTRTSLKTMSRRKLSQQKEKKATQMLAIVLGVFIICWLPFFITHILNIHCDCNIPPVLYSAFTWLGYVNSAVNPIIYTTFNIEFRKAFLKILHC
# protocol.summary: D2 receptor binding activity ([3H]-YM 09151-2 displacement)
# condition.context: COS cell pellets with recombinant D2; 0.5 nM 3H-YM 09151-2; nonspecific 1 mM spiperone
Record the value in nM, omitting the unit from your answer.

Output measured Ki for this item: c1cnc(N2CCN(CCNC3=NCc4ccccc43)CC2)nc1
2380

Output measured Ki for this item: CN(CCCc1ccccc1)CCNC1=NCc2ccccc21
1940

Next:
Output measured Ki for this item: c1cnc(N2CCN(CCCNC3=NCc4ccccc43)CC2)nc1
1420

====

# measurement.target: D3 receptor (Chlorocebus aethiops, UniProt P52703)
# Sequence (P52703 whole entry): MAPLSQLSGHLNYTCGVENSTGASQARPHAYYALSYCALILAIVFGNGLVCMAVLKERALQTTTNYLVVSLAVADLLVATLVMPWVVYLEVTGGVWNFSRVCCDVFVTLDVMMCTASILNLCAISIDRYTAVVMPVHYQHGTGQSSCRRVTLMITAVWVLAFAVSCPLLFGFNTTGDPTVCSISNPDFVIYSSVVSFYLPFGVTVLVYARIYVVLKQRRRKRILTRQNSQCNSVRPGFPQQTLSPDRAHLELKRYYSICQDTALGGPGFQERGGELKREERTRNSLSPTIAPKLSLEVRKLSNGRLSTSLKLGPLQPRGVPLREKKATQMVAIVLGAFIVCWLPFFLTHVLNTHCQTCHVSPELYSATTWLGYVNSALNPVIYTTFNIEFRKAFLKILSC
# protocol.summary: D3 receptor binding activity ([3H]-YM 09151-2 displacement)
# condition.context: COS cell pellets with recombinant D3; 0.5 nM 3H-YM 09151-2; nonspecific 1 mM spiperone
Measured Ki, listed per entry.

Output measured Ki for this item: CN(CCCc1ccccc1)CCNC1=NCc2ccccc21
> 100 µM

Output measured Ki for this item: c1cnc(N2CCN(CCNC3=NCc4ccccc43)CC2)nc1
> 100 µM

API: the following record is the query input.
Output measured Ki for this item: c1cnc(N2CCN(CCCNC3=NCc4ccccc43)CC2)nc1
> 100 µM

====

# measurement.target: human dopamine D4 receptor (Homo sapiens)
# Sequence (P21917 1-419): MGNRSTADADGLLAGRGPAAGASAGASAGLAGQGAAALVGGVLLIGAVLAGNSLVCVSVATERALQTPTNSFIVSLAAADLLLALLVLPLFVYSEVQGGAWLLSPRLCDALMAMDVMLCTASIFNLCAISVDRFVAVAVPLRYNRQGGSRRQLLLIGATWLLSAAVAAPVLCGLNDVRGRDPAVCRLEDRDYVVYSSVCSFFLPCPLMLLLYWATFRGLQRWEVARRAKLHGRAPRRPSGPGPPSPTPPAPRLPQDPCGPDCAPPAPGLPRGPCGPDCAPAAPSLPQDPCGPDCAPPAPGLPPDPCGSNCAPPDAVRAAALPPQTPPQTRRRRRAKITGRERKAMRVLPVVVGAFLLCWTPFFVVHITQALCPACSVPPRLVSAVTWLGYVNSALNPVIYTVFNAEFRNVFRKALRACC
measured.endpoint: pKi
Quick note: pKi values are minus log10 of concentrations in mol/L.

Output measured pKi for this item: CN(CCCc1ccccc1)CCNC1=NCc2ccccc21
7.00
